# reported Papp at 5 h, up to 200 µM; entries follow
EXPERIMENTAL_DETAILS: Apparent permeability of the compound in phosphate buffer saline at 50 to 200 uM after 5 hrs by PAMPA
Assay type: ADME
OBSERVED_PROPERTY: Papp at 5 h, up to 200 µM (×10⁻⁶ cm/s)

COMPOUND_STRING: CN1CCC(n2cc(Nc3nccc(-c4c(-c5ccc(F)cc5)nc5ccccn45)n3)cn2)CC1
OBS_VALUE: 12.4
//
COMPOUND_STRING: CN(C)CCNc1ccc2nc(-c3ccc(F)cc3)c(-c3ccnc(N)n3)n2n1
OBS_VALUE: 1
//
COMPOUND_STRING: Fc1ccc(-c2nc3ccccn3c2-c2ccnc(NC3CCOCC3)n2)cc1
OBS_VALUE: 14.5
//
COMPOUND_STRING: CN(C)CCCNc1nccc(-c2c(-c3ccc(F)cc3)nc3ccccn23)n1
OBS_VALUE: 8.2
